Test: qHTS assay for small molecule disruptors of mitochondrial membrane potential screened against the NCATS CANVASS Library (AID 1347389); also: nearly all actives have a fitted effect of over 60% in size
Conditions: HepG2 mitochondrial membrane potential, m-MPI red/green ratio, 1.5 h; series mostly up to 46.1 µM
Source text: Natural products and their derivatives continue to be wellsprings of nascent therapeutic potential. […] To address this issue, the Canvass library of natural products was assembled (https://tripod.nih.gov/canvass), in collaboration with academic and industry researchers, for quantitative high-throughput screening (qHTS) across a diverse set of cell-based and biochemical assays. […] In response to mitochondrial depolarization, the red-to-green fluorescence ratio decreases. […]
Results filed as inconclusive are left out. Calls of active or inactive are those of the source. Calls follow the shape of the dose curve; as a rule, active = well fitted inhibition curve with a large enough effect; inconclusive = small, poorly fitted or top-dose-only effect; inactive = flat fitted curve, though single readings scatter.
A correct response names exactly one class from 1 = active, -1 = inactive

Previously resolved entries follow.
# Compound, Category
rows = [
    ("C=CC(C)(C)[C@@]12C[C@H]3C(=O)N/C(=C/c4cnc[nH]4)C(=O)N3[C@@H]1Nc1ccccc12", -1),
    ("O[C@H]1C=C[C@@]23CCN(Cc4cc5c(cc42)OCO5)[C@@H]3C1", -1),
    ("C/C=C/[C@@H]1[C@H]2C[C@@H](C)CC[C@@H]2C(C)=C[C@H]1C(=O)c1c(O)c(-c2ccc(O)cc2)c[nH]c1=O", 1),
    ("CCCCC1CC[C@H]2CCCC(CCC)N12 (some centres not stated)", -1),
    ("CO[C@@H](/C=C/CC/C=C/C(=O)O)[C@@H](O)[C@H](C)/C=C(\\C)[C@H](O)[C@H](C)C(=O)CCCC1CC(=O)NC(=O)C1", -1),
]

Identify the outcome logged in this assay for the compound shown: CC(C)CC1C(=O)O[C@H](C(C)C)C(=O)N(C)C(CC(C)C)C(=O)O[C@@H](C(C)C)C(=O)N(C)C(CC(C)C)C(=O)O[C@H](C(C)C)C(=O)N(C)C(CC(C)C)C(=O)O[C@@H](C(C)C)C(=O)N1C (some centres not stated)
1

Any idea what this test logged for `C=CC(C)(C)[C@@]12C[C@H]3C(=O)N/C(=C\c4cnc[nH]4)C(=O)N3[C@@H]1Nc1ccccc12` ?
-1

Returns: the outcome recorded for `CC[C@]12C=CCN3CC[C@]4(C(=C(C(=O)OC)C1)Nc1ccccc14)[C@@H]32` in this assay.
-1

Identify the outcome logged in this assay for the compound shown: CCCC[C@@H]1CC[C@H]2CCCC(CCCO)N12 (some centres not stated)
-1

Recorded test call requested for `C/C=C1/CN2CC[C@@]34c5ccccc5N(C)[C@@H]3[C@@H]2C[C@@H]1[C@H]4C(=O)OC`
-1

For `CO[C@H]([C@@H](C)[C@H]1O[C@]1(C)C[C@H](C)/C=C/C=C(\C)[C@H]1O[C@@H](CC(=O)O)CC[C@@H]1C)[C@@H](C)O` , what call appears in the results of this test?
-1

# fetch the recorded call for `CO[C@@]12c3c(C)cc(O)c4c(=O)occ(c34)C(=O)[C@@H]1[C@]13COC(=O)c4c(O)cc(C)c(c41)C(=O)[C@H]2[C@@H]3OC(C)=O` here
1
